Answer each item with its documented IC50.
measurement_target: human SK3 channel (hKCa2.3) (Homo sapiens)
assay_explanation: Automated patch clamping (QPatch 16 HT whole-cell recordings)
experimental_setup: HEK-293 cells stably expressing hKCa2.3; currents measured at −80 mV; normalized to N-methyl bicuculline; read-out: IC50 in the Automated patch clamping assay (SK3 channel inhibition)

INSERT INTO assay_data (molecule, reported) VALUES
  ('CC(CO)(Nc1nc2c(CNc3ccon3)cccc2[nH]1)c1ccc(F)c(Cl)c1 (stereo not shown)', '< 1 µM');

Items follow; give IC50 for each.
1. CC(CO)(Nc1nc2c(CNc3ncco3)cccc2[nH]1)c1cc(Cl)ccc1F (single isomer, unassigned; (+)) [Example 48a]
2. CC(CO)(Nc1nc2c(CNc3ncco3)cccc2[nH]1)c1ccc(Cl)c(F)c1 (single isomer, unassigned; (-)) [Example 40a]
3. CC(CO)(Nc1nc2c(Cn3ccoc3=N)cccc2[nH]1)c1cccc(Cl)c1 (single isomer, unassigned; (-)) [Example 3a]
4. Cc1coc(=N)n1Cc1cccc2[nH]c(NC(C)(CO)c3ccc(F)c(Cl)c3)nc12 (stereo not shown) [Example 13]
5. COCC(C)(Nc1nc2c(Cn3c(C)coc3=N)cccc2[nH]1)c1cccc(Cl)c1 (stereo not shown)
6. CC(CO)(Nc1nc2c(CN3CCSC3=O)cccc2[nH]1)c1ccc(F)c(Cl)c1 (stereo not shown)

Result ::
1: < 30 µM; 2: < 30 µM; 3: < 1 µM; 4: < 1 µM; 5: < 30 µM; 6: < 30 µM

* * *

measurement_target: human SK3 channel (hKCa2.3) (Homo sapiens, UniProt Q9UGI6)
assay_explanation: Automated patch clamping (QPatch 16 HT whole-cell recordings)
experimental_setup: HEK-293 cells stably expressing hKCa2.3; currents measured at −80 mV; normalized to N-methyl bicuculline; read-out: IC50 in the Automated patch clamping assay (SK3 channel inhibition)
pIC50: −log10 of the molar value.
readout_name: pIC50

Reference set, count: 5
INSERT INTO measurements (molecule, readout_name, reported) VALUES
  ('Cc1nc(NCc2cccc3[nH]c(NC(C)(CO)c4ccc(F)c(Cl)c4)nc23)no1 (stereo not shown)', 'pIC50', '> 4.52'),
  ('CC(CO)(Nc1nc2c(Cn3ccoc3=N)cccc2[nH]1)c1ccc(F)c(Cl)c1 (stereo not shown) [Example 8]', 'pIC50', '> 6.00'),
  ('Cc1cn(Cc2cccc3[nH]c(NC(C)(CO)c4cccc(C(F)(F)F)c4)nc23)c(=N)o1 (single isomer, unassigned; (+)) [Example 24b]', 'pIC50', '> 6.00'),
  ('CC(CO)(Nc1nc2c(Cn3ccoc3=N)cccc2[nH]1)c1ccc(Cl)c(Cl)c1 (stereo not shown) [Example 19]', 'pIC50', '> 6.00'),
  ('COCC(C)(Nc1nc2c(Cn3ccoc3=N)cccc2[nH]1)c1cccc(Cl)c1 (stereo not shown)', 'pIC50', '> 4.52');

Items follow; give pIC50 for each.
1. CC(CO)(Nc1nc2c(CNc3ncco3)cccc2[nH]1)c1ccc(F)c(Cl)c1 (stereo not shown)
2. Cc1cc(NCc2cccc3[nH]c(NC(C)(CO)c4ccc(F)c(Cl)c4)nc23)no1 (single isomer, unassigned; (+)) [Example 12b]

Result ::
1: > 4.52; 2: > 4.52

* * *

measurement_target: human SK3 channel (hKCa2.3) (Homo sapiens, UniProt Q9UGI6)
assay_explanation: Automated patch clamping (QPatch 16 HT whole-cell recordings)
experimental_setup: HEK-293 cells stably expressing hKCa2.3; currents measured at −80 mV; normalized to N-methyl bicuculline; read-out: IC50 in the Automated patch clamping assay (SK3 channel inhibition)
Protocol: Automated whole cell patch-clamp recordings were performed using a QPatch 16 HT system and single-hole Qplates (Sophion, Denmark) on HEK-293 cells stably expressing the human SK3 channel (hKCa2.3). Cells were cultured and prepared for experiments using normal cell culturing procedures. […] The Qpatch automatically generates giga sealing, whole-cell formation, compound application and recording of current. hKCa2.3 currents were recorded in symmetrical K^+ solutions. […]
readout_name: IC50

Reference set, count: 3
INSERT INTO results (compound, readout_name, reported) VALUES
  ('CC(CO)(Nc1nc2c(Cn3ccoc3=N)cccc2[nH]1)c1cccc(Cl)c1F (single isomer, unassigned; (+)) [Example 41b]', 'IC50', '< 30 µM'),
  ('CC(CO)(Nc1nc2c(Cn3ccoc3=N)cccc2[nH]1)c1ccc(Cl)c(F)c1 (single isomer, unassigned) [Example 39b]', 'IC50', '< 30 µM'),
  ('CC(CCO)(Nc1nc2c(Cn3ccoc3=N)cccc2[nH]1)c1cccc(C(F)(F)F)c1 (stereo not shown) [Example 26]', 'IC50', '< 30 µM');

Now examine the next entry.
Query :: Which IC50 is listed for CC(CO)(Nc1nc2c(Cn3ccsc3=N)cccc2[nH]1)c1ccc(F)c(Cl)c1 (stereo not shown) [Example 32] ?
Result :: < 1 µM
